Entries and their measured IC50 follow.
- system-tested: human IKK-2 (rhIKK-2 homodimer) (Homo sapiens, UniProt O14920)
- Construct: FLAG (DYKDDDDKD) (C); made in house; host or cells: insect cells (baculovirus, pFastBac)
- Sequence (O14920 whole entry): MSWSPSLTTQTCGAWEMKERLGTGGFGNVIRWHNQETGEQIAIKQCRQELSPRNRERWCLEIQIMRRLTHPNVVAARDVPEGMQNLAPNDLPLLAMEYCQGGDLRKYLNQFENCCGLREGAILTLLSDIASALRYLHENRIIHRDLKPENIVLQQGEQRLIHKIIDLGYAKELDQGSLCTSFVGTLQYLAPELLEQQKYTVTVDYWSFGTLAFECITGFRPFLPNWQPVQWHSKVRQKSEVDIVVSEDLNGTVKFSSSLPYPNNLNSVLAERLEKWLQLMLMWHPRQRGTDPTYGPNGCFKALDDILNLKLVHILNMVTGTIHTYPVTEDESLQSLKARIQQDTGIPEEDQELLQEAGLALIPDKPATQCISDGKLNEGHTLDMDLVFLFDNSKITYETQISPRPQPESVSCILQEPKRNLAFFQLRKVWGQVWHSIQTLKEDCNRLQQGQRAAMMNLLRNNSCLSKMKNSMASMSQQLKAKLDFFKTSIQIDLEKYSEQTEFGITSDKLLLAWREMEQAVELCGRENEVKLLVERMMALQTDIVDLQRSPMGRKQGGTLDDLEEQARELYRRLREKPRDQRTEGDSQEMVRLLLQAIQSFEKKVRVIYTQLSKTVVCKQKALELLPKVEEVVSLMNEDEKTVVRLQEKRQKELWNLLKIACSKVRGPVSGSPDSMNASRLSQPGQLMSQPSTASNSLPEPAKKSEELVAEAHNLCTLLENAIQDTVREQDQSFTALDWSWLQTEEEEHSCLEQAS
- measurement-notes: IKK-2 Resin Enzyme Assay (Human IKK-2 Enzyme Assay)
- Type: biochemical
- conditions-used: human IKK-2, resin enzyme assay; read-out: IC50 (μM) hIKK-2
In your response, the unit should come after the numeric value.

Below are worked cases with known answers.
compound | IC50
N#CCOc1cc(F)ccc1-c1ccc(-n2cc(NC(N)=O)c(C(N)=O)n2)cc1 [Example 173] | 0.15 µM
CC1(C)OB(c2ccc(-n3cc(NC(N)=O)c(C(N)=O)n3)cc2)OC1(C)C [Example 260] | 0.512 µM
CCN(CC)C(=O)CCc1cccc(-c2ccc(-n3cc(NC(N)=O)c(C(N)=O)n3)cc2)c1 [Example 382] | 0.9 µM

# context switch: different compound, same IC50
[Q] Find the recorded IC50 belonging to NC(=O)Nc1cn(-c2cccc(I)c2)nc1C(N)=O [Example 195] and report it.
[A] 0.387 µM

---

- system-tested: human IKK-2 (rhIKK-2 homodimer) (Homo sapiens, UniProt O14920)
- Construct: FLAG (DYKDDDDKD) (C); made in house; host or cells: insect cells (baculovirus, pFastBac)
- measurement-notes: IKK-2 Resin Enzyme Assay (Human IKK-2 Enzyme Assay)
- Type: biochemical
- conditions-used: human IKK-2, resin enzyme assay; read-out: IC50 (μM) hIKK-2
assay-endpoint: IC50 (µM)
Could you give me the number in µM? Just the number is fine.

Below are worked cases with known answers.
molecule | unit-tag | IC50
Cc1noc(C)c1-c1cccc(-n2cc(NC(N)=O)c(C(N)=O)n2)c1 | µM | 0.88
NC(=O)Nc1cn(-c2ccc(-c3ccc(O)cc3)cc2)nc1C(N)=O | µM | 1.63
NC(=O)Nc1cn(-c2ccc(-c3ccc(-c4nnn[nH]4)cc3)cc2)nc1C(N)=O | µM | 0.821
NC(=O)Nc1cn(-c2ccc(Sc3ccc(Cl)cc3)cc2)nc1C(N)=O | µM | 4.56
NC(=O)Nc1cn(-c2ccc(S(=O)(=O)C3CCCCC3)cc2)nc1C(N)=O | µM | 0.237

[Q] Find the recorded IC50 belonging to NC(=O)Nc1cn(-c2ccc([S+]([O-])c3ccccc3F)cc2)nc1C(N)=O (stereo not drawn) and report it.
[A] 3.75

[Q] Okay, and `Cc1ccc(-n2cc(NC(N)=O)c(C(N)=O)n2)cc1` ?
[A] 0.3

[Q] Okay, and `NC(=O)Nc1cn(-c2ccc(-c3ccccc3O)c(F)c2)nc1C(N)=O` ?
[A] 1.18

[Q] Okay, and `CNC(=O)c1ccc(-c2ccc(-n3cc(NC(N)=O)c(C(N)=O)n3)cc2)cc1` ?
[A] 0.24

---

- system-tested: human IKK-2 (rhIKK-2 homodimer) (Homo sapiens, UniProt O14920)
- Construct: FLAG (DYKDDDDKD) (C); made in house; host or cells: insect cells (baculovirus, pFastBac)
- measurement-notes: IKK-2 Resin Enzyme Assay (Human IKK-2 Enzyme Assay)
- Type: biochemical
- conditions-used: human IKK-2, resin enzyme assay; read-out: IC50 (μM) hIKK-2
Where a name gives a salt, the structure may show the parent alone.
Entries and their measured IC50 follow.
Could you give me the number in µM? Just the number is fine.

Below are worked cases with known answers.
molecule | unit-tag | IC50
NC(=O)Nc1nn(-c2ccc(-c3ccc(F)cc3F)cc2)cc1C(N)=O | µM | 0.355
COc1ccc(CNC(=O)c2nn(-c3cccc(O)c3)cc2NC(N)=O)cc1 | µM | 0.595
CNC(=O)COc1cccc(-c2ccc(-n3cc(NC(N)=O)c(C(N)=O)n3)cc2)c1 | µM | 0.07
NC(=O)Nc1cn(-c2cccc(-c3ccccc3CO)c2)nc1C(N)=O | µM | 1.52
NC(=O)Nc1cn(-c2ccc(C(=O)N3CCOCC3)cc2)nc1C(N)=O | µM | 1.43
CCNC(=O)COc1cccc(-c2ccc(-n3cc(NC(N)=O)c(C(N)=O)n3)cc2)c1 | µM | 0.21

[Q] Find the recorded IC50 belonging to `NC(=O)Nc1cn(-c2ccc(S(N)(=O)=O)cc2)nc1C(N)=O` and report it.
[A] 0.123

[Q] Okay, and `CN(C)C(=O)COc1cccc(-c2ccc(-n3cc(NC(N)=O)c(C(N)=O)n3)cc2)c1` ?
[A] 0.105

[Q] Okay, and `NC(=O)Nc1cn(-c2ccc(Sc3ccccc3F)cc2)nc1C(N)=O` ?
[A] 0.831

[Q] Okay, and `Cc1cc(O)ccc1-c1cccc(-n2cc(NC(N)=O)c(C(N)=O)n2)c1` ?
[A] 0.7

[Q] Okay, and `NC(=O)Nc1cn(-c2ccc(-c3cccnc3)cc2)nc1C(N)=O` ?
[A] 2.86

[Q] Okay, and COc1ccc(-n2cc(NC(N)=O)c(C(N)=O)n2)cc1 [Example 10, trifluoroacetate] ?
[A] 2.91

[Q] Okay, and `NC(=O)Nc1cn(-c2ccc(F)cc2)nc1C(N)=O` ?
[A] 0.844

[Q] Okay, and `CC(C)CCSc1ccc(-n2cc(NC(N)=O)c(C(N)=O)n2)cc1` ?
[A] 6.23

[Q] Okay, and `NC(=O)Nc1cn(-c2cccc(-c3ccncc3)c2)nc1C(N)=O` ?
[A] 0.31

[Q] Okay, and `NC(=O)Nc1nn(-c2ccc(-c3cccc(F)c3F)cc2)cc1C(N)=O` ?
[A] 1.99

[Q] Okay, and `NC(=O)NC(=O)Nc1cn(-c2ccc(Br)c(C(F)(F)F)c2)nc1C(N)=O` ?
[A] 10.7
